Biological target: DR4w4 (DRB1*0401) (Homo sapiens, UniProt P01903+P01911, A100K/A169T/F76Y/I96L/K127E/L162R/M171V/N62H/P40V/Q125Y/R42H/S133A/S149N/S66Y/V115G/V209L/W38E)
Assay: biochemical
Assay type: binding
No end group written: not given here.
EXPERIMENTAL ENDPOINT: log10 IC50 (log10 of the value in µM)

>>> print(df.to_string())
                     sequence_string  experimental_endpoint  recorded_number
0  NSIFDFGEMVQWAYD [Peptide 89.0106]             log10 IC50             0.72
1  EVHMENESIYCPDSV [Peptide 90.0238]             log10 IC50             0.72
2  QSTQVDIRILQELLM [Peptide 1543.11]             log10 IC50             0.66
3  QEQMLIQPPKIRSPA [Peptide 89.0124]             log10 IC50             0.00
4  RLTVAKLMSNLLSIP [Peptide 89.0065]             log10 IC50            -2.21
5  CIHSTATDLRTLQQM [Peptide 1543.45]             log10 IC50            -1.85

* * *

Recorded measurements of IC50, one per entry
Biological target: DRB1*1201 (Homo sapiens, UniProt P01903+P01911, A100R/A169T/D57E/D86V/F55L/H45Y/K41T/L162R/M171V/P40S/Q125H/Q178H/Q39Y/Q99D/R42G/S66L/T262R/V114A/V67L/W38E/Y59H/Y61H/Y89S)
Assay: biochemical

COMPOUND	RELATION SIGN	IC50, µM
CC[C@H](C)[C@H](NC(=O)[C@H](Cc1ccccc1)NC(=O)[C@H](Cc1c[nH]c2ccccc12)NC(=O)CNC(=O)[C@H](Cc1ccccc1)NC(=O)[C@H](CC(C)C)NC(=O)[C@H](Cc1ccccc1)NC(=O)CNC(=O)[C@@H](N)CC(C)C)C(=O)N[C@@H](CCCCN)C(=O)N[C@@H](CO)C(=O)N[C@@H](CO)C(=O)N[C@@H](CC(N)=O)C(=O)N[C@@H](CCC(=O)O)C(=O)N[C@@H](C)C(=O)O [Peptide 68.0084]	=	0.475
CC[C@H](C)[C@H](NC(=O)[C@H](CO)NC(=O)[C@H](CC(N)=O)NC(=O)[C@H](C)NC(=O)[C@H](CC(C)C)NC(=O)[C@H](CCC(=O)O)NC(=O)[C@H](Cc1ccccc1)NC(=O)[C@@H](NC(=O)[C@H](CCSC)NC(=O)CN)C(C)C)C(=O)N[C@H](C(=O)N[C@@H](CC(C)C)C(=O)N1CCC[C@H]1C(=O)N[C@@H](Cc1ccccc1)C(=O)N[C@@H](CC(=O)O)C(=O)O)C(C)C [Peptide 68.0123]	=	0.098
CC(C)C[C@H](NC(=O)[C@H](CCC(N)=O)NC(=O)[C@H](CCCCN)NC(=O)[C@@H](NC(=O)[C@H](CC(C)C)NC(=O)[C@H](CCC(N)=O)NC(=O)[C@@H](NC(=O)[C@H](C)NC(=O)[C@H](CO)NC(=O)[C@@H](NC(=O)[C@@H](NC(=O)[C@H](CC(=O)O)NC(=O)[C@@H](N)CC(=O)O)[C@@H](C)O)C(C)C)[C@@H](C)O)C(C)C)C(=O)N[C@@H](CCC(N)=O)C(=O)N[C@@H](Cc1c[nH]cn1)C(=O)O [Peptide 89.0162]	=	0.275
CC[C@H](C)[C@H](NC(=O)[C@@H](NC(=O)[C@H](Cc1c[nH]cn1)NC(=O)[C@@H](N)CC(C)C)C(C)C)C(=O)N[C@@H](CO)C(=O)N[C@@H](CC(N)=O)C(=O)N[C@@H](CC(=O)O)C(=O)N[C@H](C(=O)N[C@@H](CS)C(=O)N[C@@H](C)C(=O)N[C@@H](CCC(N)=O)C(=O)N[C@H](C(=O)N[C@@H](Cc1c[nH]cn1)C(=O)N1CCC[C@H]1C(=O)N[C@@H](CCC(N)=O)C(=O)O)C(C)C)C(C)C [Peptide 68.0077]	>	20
CC[C@H](C)[C@H](N)C(=O)N[C@@H](CCC(=O)O)C(=O)N[C@@H](Cc1ccccc1)C(=O)N[C@H](C(=O)N[C@H](C(=O)N[C@@H](Cc1ccccc1)C(=O)N[C@@H](CC(C)C)C(=O)NCC(=O)N[C@@H](C)C(=O)N[C@@H](CC(C)C)C(=O)N[C@@H](CCCCN)C(=O)N[C@@H](CO)C(=O)N[C@@H](Cc1ccccc1)C(=O)N[C@@H](CC(C)C)C(=O)N[C@@H](CCCCN)C(=O)O)[C@@H](C)O)[C@@H](C)CC [Peptide 89.0033]	=	0.41

* * *

Target: DRB4*0101 (Homo sapiens, UniProt P01903+P13762, G164S)
Test: biochemical
Type: binding
No end group written: not given here.
log10 IC50 for assorted sequences
EXPERIMENTAL ENDPOINT: log10 IC50 (log10 of the value in nM)

                       sequence_string                            assayed_system  recorded_number
 0   GKSYFGMSLIQFLKG [Peptide 89.0075]  DRB4*0101 (Homo sapiens, UniProt P01903+P13762, G164S)             2.57
 1   LYCYEQLSDSSDEDE [Peptide 1543.13]  DRB4*0101 (Homo sapiens, UniProt P01903+P13762, G164S)             4.10
 2   SWGMVMLMLVRFKCA [Peptide 89.0044]  DRB4*0101 (Homo sapiens, UniProt P01903+P13762, G164S)             3.16
 3   QAELETAQALFHAQE [Peptide 89.0022]  DRB4*0101 (Homo sapiens, UniProt P01903+P13762, G164S)             1.86
 4   ESDMAFQYAQLADCN [Peptide 89.0085]  DRB4*0101 (Homo sapiens, UniProt P01903+P13762, G164S)             1.68
 5   KERHVNANKRFHNIM [Peptide 1543.59]  DRB4*0101 (Homo sapiens, UniProt P01903+P13762, G164S)             3.93
 6   LMQLKCPPLLITSNI [Peptide 89.0057]  DRB4*0101 (Homo sapiens, UniProt P01903+P13762, G164S)             1.83
 7   EDEIDTDLDGFIDDS [Peptide 90.0126]  DRB4*0101 (Homo sapiens, UniProt P01903+P13762, G164S)             2.92
 8   LDHYENDSKDINSQI [Peptide 1601.29]  DRB4*0101 (Homo sapiens, UniProt P01903+P13762, G164S)             2.74
 9   LCVNSTASDLRTIQQ [Peptide 1543.15]  DRB4*0101 (Homo sapiens, UniProt P01903+P13762, G164S)             3.32
10  KHIRLLECVLMYKARE [Peptide 1601.44]  DRB4*0101 (Homo sapiens, UniProt P01903+P13762, G164S)             1.59
11   RFHNIMGRWTGRCSE [Peptide 1543.60]  DRB4*0101 (Homo sapiens, UniProt P01903+P13762, G164S)             3.05
12   LKTIIKPHCMYYHMQ [Peptide 89.0119]  DRB4*0101 (Homo sapiens, UniProt P01903+P13762, G164S)             3.23
13   SEVYDFVFADLRIVY [Peptide 1543.48]  DRB4*0101 (Homo sapiens, UniProt P01903+P13762, G164S)             3.15
14   TRPRTLHELCEVLEE [Peptide 1543.42]  DRB4*0101 (Homo sapiens, UniProt P01903+P13762, G164S)             3.41
15   SADDLRAFQQLFLNT [Peptide 1543.07]  DRB4*0101 (Homo sapiens, UniProt P01903+P13762, G164S)             2.43
16   LNVLKTSNAKAAMLA [Peptide 89.0003]  DRB4*0101 (Homo sapiens, UniProt P01903+P13762, G164S)             2.71
17   ETCMLIQPPKLRSSV [Peptide 89.0029]  DRB4*0101 (Homo sapiens, UniProt P01903+P13762, G164S)             1.91
18   SEIYIIEETTCTLVA [Peptide 90.0250]  DRB4*0101 (Homo sapiens, UniProt P01903+P13762, G164S)             2.36
19   RLTVAKGLSTLLHVP [Peptide 89.0028]  DRB4*0101 (Homo sapiens, UniProt P01903+P13762, G164S)             2.61
20   TAIFGVNPTIAEGFK [Peptide 89.0024]  DRB4*0101 (Homo sapiens, UniProt P01903+P13762, G164S)             2.77
